Test: qHTS Assay for Enhancers of SMN2 Splice Variant Expression; note: nearly all actives have a fitted effect of over 55% in size
Conditions: HEK293 SMN2-luciferase splicing reporter, luminescence, 30-36 h; series mostly up to 46.1 µM
The whole screen tested about 210,000 compounds, of which about 5,900 (2.8%) were called active. About 5% were inconclusive and are not listed. Calls come from the whole dose curve; as a rule, active = well fitted activation curve with a large enough effect; inconclusive = small, poorly fitted or top-dose-only effect; inactive = no such curve, though single readings can be large or run the other way. The sample as a whole holds a higher share of actives than the screen did.
Allowed answers: yes (1) (active), no (0) (inactive)

Exercise: Identify the outcome logged in this assay for the compound shown: `CC(C)(C)NC(=O)CSC(=Nc1ccccc1F)NC#N`
Key: yes (1)

Exercise: What was the test verdict on `Cc1oc2ccc(O)c(CN3CCCCC3)c2c1C(=O)Nc1cccc(C(F)(F)F)c1` ?
Key: no (0)

Exercise: Answer briefly: the call reported for `Cc1ccc(CN2COc3cc(C)c4c(oc(=O)c5ccccc54)c3C2)cc1` in this assay.
Key: no (0)

Exercise: Given `Cc1ccc2nc(/C(C#N)=C/c3ccc(-c4ccc(C(=O)OC(C)C)cc4)o3)[nH]c2c1` , state the outcome it received in this test.
Key: yes (1)

Exercise: What call does the record list for `COc1ccc(CNC(=O)c2cc3c(=O)[nH]c4ccc(C)cc4c3s2)c(OC)c1` ?
Key: no (0)

Exercise: // return assay outcome for CCCN(CCC)c1ccc(C(O)c2nnc(-c3ccccc3)o2)cc1 (stereo not given)
Key: no (0)

Exercise: Answer briefly: the call reported for `COc1cccc(NC(=O)CCNS(=O)(=O)c2ccc3c(c2)oc(=O)n3C)c1` in this assay.
Key: no (0)

Exercise: Write down the call the test reported for this compound. Item: `CC(C)c1ccc(Cn2c(COc3ccccc3)nc3ccccc32)cc1`
Key: no (0)

Exercise: Which outcome was assigned to `COc1ccc(Cn2c(=O)n(-c3ccccc3C)c(=O)c3c4c(sc32)CN(C(C)=O)CC4)cc1` in this test?
Key: no (0)

Exercise: Recorded test outcome, item `O=C(/C=C/c1cnc2ccccc2n1)NC1CCCCCC1`
Key: yes (1)

Exercise: Test call for this compound, please: `N#Cc1ccccc1NC(=O)c1cccc(COc2ccc(Cl)cc2Cl)c1`
Key: yes (1)

Exercise: State the result this test recorded for `Cc1ccc(Nc2c(-c3ccc(Cl)cc3)nc3sccn23)c(C)c1` .
Key: no (0)

Exercise: # lookup: test call for COc1ccc(C(CC(=O)O)NC(=O)Cc2ccccc2)cc1 (stereo not given)
Key: no (0)

Exercise: # fetch the recorded call for `CC(C)(C)NS(=O)(=O)c1ccc(NC(=O)NC2CCCCC2)cc1` here
Key: no (0)

Exercise: Short answer needed: outcome of this test for `CCCS(=O)(=O)c1c(Nc2ccccc2C)sc(C(=O)c2ccccc2)c1N` ?
Key: no (0)

Exercise: Per the assay record, what outcome was assigned to `O=C(Cn1c(=O)n(Cc2cccs2)c(=O)c2cccnc21)Nc1ccc(F)cc1` ?
Key: no (0)

Exercise: // return assay outcome for `COc1cccc(CNC(=O)c2cc(=O)[nH]c3ccc(S(=O)(=O)N4CCCCC4)cc23)c1`
Key: no (0)

Exercise: How did this test come out for `N#Cc1ccc(OCc2nnc(-c3ccc([N+](=O)[O-])cc3)o2)cc1` ?
Key: no (0)

Exercise: Recorded test outcome, item `Cc1ccccc1Nc1nnc(SCC(=O)c2cc3ccccc3o2)s1`
Key: no (0)

Exercise: Just curious, what result did `COc1ccc(-n2nc(C(=O)NCCc3ccc(Cl)cc3)c3c4ccccc4n(C)c3c2=O)cc1Cl` get here?
Key: no (0)

Exercise: Which result was noted for this compound in the test: `CSc1ccc(C#N)cc1NC(=O)c1cccc(Cl)c1`
Key: no (0)

Exercise: Could you please tell me the result logged for `CC(C)[C@@H]1NC(=O)[C@H](Cc2ccccc2)NC(=O)[C@@H](CC(=O)O)NC(=O)CNC(=O)[C@H](CCCNC(=N)N)NC1=O` in this assay?
Key: no (0)

Exercise: Recorded test outcome, item `COc1ccc(C(=O)CSc2nccc(=O)[nH]2)cc1`
Key: no (0)

Exercise: What did this assay record as the result for `CCc1ccccc1NC(=O)c1ccc2c(c1)CCN2S(C)(=O)=O` ?
Key: no (0)

Exercise: Record lookup: outcome of this test for `NC(=O)CSc1nc2c(oc3ccccc32)c(=O)n1Cc1ccccc1` ?
Key: no (0)

Exercise: State the result this test recorded for `COc1ccccc1Nc1nc(N)nc(N)c1S(=O)(=O)c1ccccc1` .
Key: no (0)

Exercise: // param item: `CCOc1ccc(S(=O)(=O)N(CC(=O)NCCSCc2ccc(C)cc2)c2ccccc2)cc1` ; yields the recorded call
Key: no (0)

Exercise: Please let me know the test result on file for `Cc1c(NC(=O)c2cc(=O)c3ccccc3o2)c(=O)n(-c2ccccc2)n1C` .
Key: no (0)

Exercise: What did this assay record as the result for CC(=O)OC(C(=O)NC1CCCCC1)c1ccccc1 (stereo not given) ?
Key: no (0)

Exercise: For `Cc1cccc2c1N(CCOc1ccccc1)C(=O)C2=O` , what call appears in the results of this test?
Key: no (0)

---

Assay: qHTS Assay for Enhancers of SMN2 Splice Variant Expression; note: nearly all actives have a fitted effect of over 55% in size
Settings: HEK293 SMN2-luciferase splicing reporter, luminescence, 30-36 h; series mostly up to 46.1 µM
Out of some 210,000 compounds screened, about 5,900 (2.8%) were called active. About 5% were inconclusive and are not listed. Calls come from the whole dose curve; as a rule, active = well fitted activation curve with a large enough effect; inconclusive = small, poorly fitted or top-dose-only effect; inactive = no such curve, though single readings can be large or run the other way. The list comes from a sample in which actives are over-represented; it also holds close analogues and randomly drawn compounds.
Hi there, use one of these labels in your reply, thanks! active, inactive

Exercise: For `O=C(Nc1ccc(Oc2ccccc2)cc1)c1ccco1` , which call appears in the assay record?
Key: active

Exercise: Field: outcome | Entry: `CCN(CC)S(=O)(=O)c1cc(C(=O)Nc2ccccn2)ccc1C`
Key: active

Exercise: Per the records of this test, what outcome belongs to O=C(Nc1ccc2c(c1)OCCO2)C(c1ccc(F)cc1)N1CCCCC1 (stereo unspecified) ?
Key: inactive

Exercise: Outcome logged for `O=C(/C=C/c1ccco1)Nc1ccc(Oc2ccccc2)cc1` in this assay:
Key: inactive

Exercise: Which outcome was entered for the compound `COc1ccc(CCNc2nc(-c3cccc(NC(C)=O)c3)cs2)cc1OC` in this test?
Key: inactive

Exercise: Which outcome did this test record for the compound CCCCN1C(=O)c2[nH]nc(-c3ccccc3O)c2C1c1cccc(OCc2ccccc2)c1 (stereo unspecified) ?
Key: inactive

---

Assay: qHTS Assay for Enhancers of SMN2 Splice Variant Expression; note: nearly all actives have a fitted effect of over 55% in size; note: potency is the fitted concentration of half-maximal effect
Conditions: HEK293 SMN2-luciferase splicing reporter, luminescence, 30-36 h; series mostly up to 46.1 µM
In all, about 210,000 compounds went through this assay and about 5,900 (2.8%) were called active. About 5% were inconclusive and are not listed. This excerpt belongs to a sample that is enriched for actives.
Observed property: Potency

Known results for compounds:
[
  {
    "Compound": "Cc1occc1C(=O)N1CCCc2ccccc21",
    "Observed property": "Potency",
    "Measured": "inactive"
  },
  {
    "Compound": "O=C(Nc1ccccc1)c1ccc2nsnc2c1",
    "Observed property": "Potency",
    "Measured": "inactive"
  },
  {
    "Compound": "CSc1nc2ccc(NC(=O)c3c(F)cccc3F)cc2s1",
    "Observed property": "Potency",
    "Measured": "12.6 µM (active)"
  },
  {
    "Compound": "C=C(C)CSc1nnc(-c2ccc(C)cc2)n1N",
    "Observed property": "Potency",
    "Measured": "8.91 µM (active)"
  },
  {
    "Compound": "Cc1cnc(NC(=O)CSc2c(Cl)cccc2Cl)s1",
    "Observed property": "Potency",
    "Measured": "inactive"
  },
  {
    "Compound": "CCOC(=O)C1CCCN(CC(=O)Nc2cc(C)c3c(=O)oc4ccccc4c3n2)C1 (stereo not drawn)",
    "Observed property": "Potency",
    "Measured": "inactive"
  }
]

Sample `O=C(Nc1ccccc1)c1cc2ccccc2[nH]1` ; Potency observed: 11.2 µM (active)

Lab note: `Cc1cc(C)c(NC(=O)CCc2c(C)nc3c(c(C)nn3C(C)(C)C)c2C)c(C)c1` gave Potency of inactive

Measured Potency, COc1cc(C(=O)N(Cc2ccc(C(C)C)cc2)C2CCS(=O)(=O)C2)cc(OC)c1OC (stereo not drawn) : inactive

// Potency value for CC(C)c1ccc(OCC(=O)N(Cc2ccc(N(C)C)cc2)C2CCS(=O)(=O)C2)cc1 (stereo not drawn) : inactive

Reported Potency for `Cc1ccc(NC(=O)NC(=O)CSc2nnc(-c3ccc(OC(F)F)cc3)n2N)c(C)c1` was inactive

Potency in this record for `CC(=O)Nc1cc2ccc(OC(C)=O)cc2oc1=O` : inactive

Potency reported for this compound `CCc1ccc(S(=O)(=O)c2nnn3c2nc(NCc2ccccc2OC)c2cc(Cl)ccc23)cc1` : inactive

# Potency of `CCOc1ccc(N(Cc2ccccc2)C(=O)c2nc(S(C)(=O)=O)ncc2Cl)cc1` = inactive

Lab note: `Cc1cc(NC(=O)CC(C)C)cc(-c2nc3ncccc3o2)c1O` gave Potency of inactive

Summary for this compound, `Cc1ccc2oc(C(=O)Nc3ccc(S(=O)(=O)N4CCCCCC4)cc3)cc(=O)c2c1` : Potency is inactive

Query `O=C(Oc1cccc(NC2=NS(=O)(=O)c3ccccc32)c1)c1ccncc1` yields Potency of inactive

Entry `CC(=O)N1CCc2cc(Br)cc(S(=O)(=O)CCC(=O)NCCc3ccc(Cl)cc3)c21` — recorded Potency = inactive
